B1: glmS ribozyme (parent)
chain: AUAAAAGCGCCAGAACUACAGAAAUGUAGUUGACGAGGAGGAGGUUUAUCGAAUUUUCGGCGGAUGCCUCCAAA

- Variants of: B1
- measurement-protocol: self-cleavage kobs at 10000 uM GlcN6P; higher = faster cleavage; RNA array
- condition-summary: with glucosamine-6-phosphate
This sample holds only a part of the variants without activity.
readout-type: self-cleavage kobs at 10000 uM GlcN6P (s⁻¹)
Numbers only, in s⁻¹.

Here's what some known entries look like.
- variant-description: "C50G G59U C67G"
  readout-type: "self-cleavage kobs at 10000 uM GlcN6P"
  result-unit: "s⁻¹"
  endpoint-result: "5.5e-05"
- variant-description: "C11A U54G A64G U69G"
  readout-type: "self-cleavage kobs at 10000 uM GlcN6P"
  result-unit: "s⁻¹"
  endpoint-result: "9.78e-05"
- variant-description: "U54G U56A U69G"
  readout-type: "self-cleavage kobs at 10000 uM GlcN6P"
  result-unit: "s⁻¹"
  endpoint-result: "6e-05"
- variant-description: "G29U U56C"
  readout-type: "self-cleavage kobs at 10000 uM GlcN6P"
  result-unit: "s⁻¹"
  endpoint-result: 0.000483
- variant-description: "A14G G29U"
  readout-type: "self-cleavage kobs at 10000 uM GlcN6P"
  result-unit: "s⁻¹"
  endpoint-result: 0.0131
- variant-description: "U30A U55C G66C"
  readout-type: "self-cleavage kobs at 10000 uM GlcN6P"
  result-unit: "s⁻¹"
  endpoint-result: "6.89e-05"
- variant-description: "A14G G37A"
  readout-type: "self-cleavage kobs at 10000 uM GlcN6P"
  result-unit: "s⁻¹"
  endpoint-result: 0.00564
- variant-description: "G29U A33U G35A U69A"
  readout-type: "self-cleavage kobs at 10000 uM GlcN6P"
  result-unit: "s⁻¹"
  endpoint-result: "6.21e-05"
- variant-description: "U31A U57G"
  readout-type: "self-cleavage kobs at 10000 uM GlcN6P"
  result-unit: "s⁻¹"
  endpoint-result: "3.33e-05"
- variant-description: "C10U A12U A33U A53G C58U U69G"
  readout-type: "self-cleavage kobs at 10000 uM GlcN6P"
  result-unit: "s⁻¹"
  endpoint-result: "6.22e-05"

Report self-cleavage kobs at 10000 uM GlcN6P for every entry below.
1. G9A A15G
2. C10G C50G C58A C61A
3. G32U G41A A53G

1: 2.27e-05; 2: 5.26e-05; 3: 0.000262
